Test system: hTERT-HMEC
PROTOCOL: percentage of EdU-negative (G0-arrested) nuclei per well, 72 h; higher = more G0 arrest
STATED_CONDITIONS: protein concentration 0.0357143 µM; reference: sequence is the full UniProt precursor, the tested protein was the secreted form or ectodomain
MEASUREMENT_NAME: percentage of EdU-negative

These solved cases illustrate the format of a correct answer.
Enquiry: Find percentage of EdU-negative (hTERT-HMEC) for the entry `MTPPERLFLPRVCGTTLHLLLLGLLLVLLPGAQGLPGVGLTPSAAQTARQHPKMHLAHSTLKPAAHLIGDPSKQNSLLWRANTDRAFLQDGFSLSNNSLLVPTSGIYFVYSQVVFSGKAYSPKATSSPLYLAHEVQLFSSQYPFHVPLLSSQKMVYPGLQEPWLHSMYHGAAFQLTQGDQLSTHTDGIPHLVLSPSTVFFGAFAL`
Return: 6.4%

Enquiry: Subsequent entry: `MNRFLLLMSLYLLGSARGTSSQPNELSGSIDHQTSVQQLPGEFFSLENPSDAEALYETSSGLNTLSEHGSSEHGSSKHTVAEHTSGEHAESEHASGEPAATEHAEGEHTVGEQPSGEQPSGEHLSGEQPLSELESGEQPSDEQPSGEHGSGEQPSGEQASGEQPSGEHASGEQASGAPISSTSTGTILNCYTCAYMNDQGKCLRGEGTCITQNSQQCMLKKIFEGGKLQFMVQGCENMCPSMNLFSHGTRMQIICCRNQSFCNKI`
Return: 6.06%

---
Enquiry: Find percentage of EdU-negative (hTERT-HMEC) for the entry MAAAAATKILLCLPLLLLLSGWSRAGRADPHSLCYDITVIPKFRPGPRWCAVQGQVDEKTFLHYDCGNKTVTPVSPLGKKLNVTTAWKAQNPVLREVVDILTEQLRDIQLENYTPKEPLTLQARMSCEQKAEGHSSGSWQFSFDGQIFLLFDSEKRMWTTVHPGARKMKEKWENDKVVAMSFHYFSMGDCIGWLEDFLMGMDSTLEPSAGAPLAMSSGTTQLRATATTLILCCLLIILPCFILPGI [Q9BZM5]
Return: 4.46%

====

Tested on: hTERT-HMEC;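 further: secreted proteins added to cultured cells, EdU pulse at the end, nuclei found by Hoechst imaging, EdU status from nuclear versus surrounding ring intensity ratio, PBS as neutral control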
PROTOCOL: percentage of EdU-negative (G0-arrested) nuclei per well, 72 h; higher = more G0 arrest
STATED_CONDITIONS: protein concentration 0.0257143 µM; reference: sequence is the full UniProt precursor, the tested protein was the secreted form or ectodomain
Some sequences, each annotated with its measured percentage of EdU-negative.
The response must be a number in % with no trailing unit.

These solved cases illustrate the format of a correct answer.
Enquiry: For the sequence shown here, `MKSLTWILGLWALAACFTPGESQRGPRGPYPPGPLAPPQPFGPGFVPPPPPPPYGPGRIPPPPPAPYGPGIFPPPPPQP` , give the reported percentage of EdU-negative.
Return: 5.18

Enquiry: Subsequent entry: `MQLQASLSFLLILTLCLELRSELARDTIKDLLPNVCAFPMEKGPCQTYMTRWFFNFETGECELFAYGGCGGNSNNFLRKEKCEKFCKFT`
Return: 4.34

Enquiry: Subsequent entry: `MKSLTWILGLWALAACFTPGESQRGPRGPYPPGPLAPPPPPCFPFGTGFVPPPHPPPYGPGRFPPPLSPPYGPGRIPPSPPPPYGPGRIQSHSLPPPYGPGYPQPPSQPRPYPPGPPFFPVNSPTDPALPTPAP`
Return: 5.63

---
Enquiry: For the sequence shown here, `MQKVTLGLLVFLAGFPVLDANDLEDKNSPFYYDWHSLQVGGLICAGVLCAMGIIIVMSAKCKCKFGQKSGHHPGETPPLITPGSAQS` , give the reported percentage of EdU-negative.
Return: 4.87

Enquiry: Subsequent entry: `MHLLLFQLLVLLPLGKTTRHQDGRQNQSSLSPVLLPRNQRELPTGNHEEAEEKPDLFVAVPHLVATSPAGEGQRQREKMLSRFGRFWKKPEREMHPSRDSDSEPFPPGTQSLIQPIDGMKMEKSPLREEAKKFWHHFMFRKTPASQGVILPIKSHEVHWETCRTVPFSQTITHEGCEKVVVQNNLCFGKCGSVHFPGAAQHSHTSCSHCLPAKFTTMHLPLNCTELSSVIKVVMLVEECQCKVKTEHEDGHILHAGSQDSFIPGVSA`
Return: 4.67

Enquiry: Subsequent entry: MKLSGMFLLLSLALFCFLTGVFSQGGQVDCGEFQDPKVYCTRESNPHCGSDGQTYGNKCAFCKAIVKSGGKISLKHPGKC [Q6UWN8]
Return: 4.92
